The reported measurements were obtained from ChEMBL document CHEMBL5260840.

MEASUREMENT TARGET: von Hippel-Lindau disease tumor suppressor/Bromodomain-containing protein 9 (Homo sapiens) (UniProt Q9H8M2+P40337)
Sequence (P40337 whole entry, looked up): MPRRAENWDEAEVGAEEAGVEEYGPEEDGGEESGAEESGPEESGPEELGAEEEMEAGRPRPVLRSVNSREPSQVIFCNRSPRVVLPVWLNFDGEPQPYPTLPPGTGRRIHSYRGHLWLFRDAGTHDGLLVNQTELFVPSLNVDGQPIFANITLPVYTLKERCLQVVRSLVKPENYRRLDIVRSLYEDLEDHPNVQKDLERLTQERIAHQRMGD
Sequence (Q9H8M2 whole entry, looked up): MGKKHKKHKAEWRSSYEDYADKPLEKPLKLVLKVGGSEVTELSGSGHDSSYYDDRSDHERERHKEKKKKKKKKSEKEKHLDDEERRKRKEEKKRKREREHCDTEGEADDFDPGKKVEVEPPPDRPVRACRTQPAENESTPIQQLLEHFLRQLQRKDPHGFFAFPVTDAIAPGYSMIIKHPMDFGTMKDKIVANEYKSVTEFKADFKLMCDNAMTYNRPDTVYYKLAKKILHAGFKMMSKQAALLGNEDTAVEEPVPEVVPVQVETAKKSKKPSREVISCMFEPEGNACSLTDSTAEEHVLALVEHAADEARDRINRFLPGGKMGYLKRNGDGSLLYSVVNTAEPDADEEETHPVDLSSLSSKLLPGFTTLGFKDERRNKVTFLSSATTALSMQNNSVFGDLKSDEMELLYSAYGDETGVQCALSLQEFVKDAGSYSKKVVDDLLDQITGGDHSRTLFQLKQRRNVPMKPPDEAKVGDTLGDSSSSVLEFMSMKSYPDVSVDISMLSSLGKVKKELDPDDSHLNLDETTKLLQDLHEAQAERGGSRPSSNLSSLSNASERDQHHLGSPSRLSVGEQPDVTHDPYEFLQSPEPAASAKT
EXPERIMENTAL PROTOCOL: PROTAC activity at VHL/BRD9 in human Ri-1 cells assessed as remaining BRD9 protein level at 1 uM incubated for 2 hrs by Western blot analysis relative to control
Format: cell-based
MEASURE: Activity (%)
Only the number, expressed in %, is required.

**Query** Dear colleague, I am looking for the recorded Activity of the following compound: `COc1cc(-c2cn(C)c(=O)c3cnccc23)cc(OC)c1CN1CCN(CCOCCOCCOCCOc2cc(-c3scnc3C)ccc2CNC(=O)[C@@H]2C[C@@H](O)CN2C(=O)[C@@H](NC(=O)C2(F)CC2)C(C)(C)C)CC1`
**Result** 105

**Query** Which Activity reading was recorded for the compound `COc1cc(-c2cn(C)c(=O)c3cnccc23)cc(OC)c1CN1CC(NC(=O)CCCCOCCOc2cc(-c3scnc3C)ccc2CNC(=O)[C@@H]2C[C@@H](O)CN2C(=O)[C@@H](NC(=O)C2(F)CC2)C(C)(C)C)C1` ?
**Result** 92

**Query** Name the reported Activity value associated with the compound `COc1cc(-c2cn(C)c(=O)c3cnccc23)cc(OC)c1CN1CC(NC(=O)COCCOCCOc2cc(-c3scnc3C)ccc2CNC(=O)[C@@H]2C[C@@H](O)CN2C(=O)[C@@H](NC(=O)C2(F)CC2)C(C)(C)C)C1`
**Result** 95

**Query** So what does the record say about Activity for `COc1cc(-c2cn(C)c(=O)c3cnccc23)c(OC)cc1CN1CC(NC(=O)CCCCOc2cc(-c3scnc3C)ccc2CNC(=O)[C@@H]2C[C@@H](O)CN2C(=O)[C@@H](NC(=O)C2(F)CC2)C(C)(C)C)C1` ?
**Result** 110

**Query** Quick one: Activity of `COc1cc(-c2cn(C)c(=O)c3cnccc23)cc(OC)c1CN1CC(NC(=O)COCCOc2cc(-c3scnc3C)ccc2CNC(=O)[C@@H]2C[C@@H](O)CN2C(=O)[C@@H](NC(=O)C2(F)CC2)C(C)(C)C)C1` ?
**Result** 109

**Query** Please report the recorded Activity for `COc1cc(-c2cn(C)c(=O)c3cnccc23)cc(OC)c1CN1CC(NC(=O)COCCOCCOCCOc2cc(-c3scnc3C)ccc2CNC(=O)[C@@H]2C[C@@H](O)CN2C(=O)[C@@H](NC(=O)C2(F)CC2)C(C)(C)C)C1` .
**Result** 89

**Query** Activity for `COc1cc(-c2cn(C)c(=O)c3cnccc23)c(OC)cc1CN1CC(NC(=O)COCCOc2cc(-c3scnc3C)ccc2CNC(=O)[C@@H]2C[C@@H](O)CN2C(=O)[C@@H](NC(=O)C2(F)CC2)C(C)(C)C)C1` ?
**Result** 99

**Query** Report Activity for `COc1cc(-c2cn(C)c(=O)c3cnccc23)c(OC)cc1CN1CC(NC(=O)COCCOCCOc2cc(-c3scnc3C)ccc2CNC(=O)[C@@H]2C[C@@H](O)CN2C(=O)[C@@H](NC(=O)C2(F)CC2)C(C)(C)C)C1` please.
**Result** 103

**Query** Can you share its Activity? I mean this compound: `COc1cc(-c2cn(C)c(=O)c3cnccc23)c(OC)cc1CN1CCN(CCOCCOCCOc2cc(-c3scnc3C)ccc2CNC(=O)[C@@H]2C[C@@H](O)CN2C(=O)[C@@H](NC(=O)C2(F)CC2)C(C)(C)C)CC1`
**Result** 125

**Query** Param item = `COc1cc(-c2cn(C)c(=O)c3cnccc23)cc(OC)c1CN1CCN(CCOCCOCCOc2cc(-c3scnc3C)ccc2CNC(=O)[C@@H]2C[C@@H](O)CN2C(=O)[C@@H](NC(=O)C2(F)CC2)C(C)(C)C)CC1` ; retrieve measured Activity.
**Result** 68
